Test system: Escherichia coli TOP10;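 note: peptides expressed intracellularly from a pBAD plasmid library in pooled LB shake-flask culture, induced with 0.3% L-arabinose, DNA abundance read by NGS, three biological replicates, DESeq2 with apeglm shrinkage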
Experiment: shrunken log2 fold change of peptide-encoding DNA abundance (4.5 h post-induction vs induction); higher = less antimicrobial activity (less host growth inhibition)
Conditions: time post-induction: 4.5 h; library: site-saturation at positions 5, 18, 19, 20
So basically, the class depends on measured shrunken log2 fold change, and the ranges are low band = under -0.1, middle band = from -0.1 up to 0.03, high band = 0.03 and over

Classify this sequence: RRIRMRPPRLPRPRPRPRRIPRP
high band

Classify this sequence: RRIRLRPPRLPRPRPRPYRTPRP
low band

Classify this sequence: RRIRLRPPRLPRPRPRPFMGPRP
low band

Classify this sequence: RRIRLRPPRLPRPRPRPSTKPRP
middle band

Classify this sequence: RRIRPRPPRLPRPRPRPEGHPRP
low band

Classify this sequence: RRIRIRPPRLPRPRPRPHQKPRP
middle band

Classify this sequence: RRIRFRPPRLPRPRPRPGALPRP
middle band

Classify this sequence: RRIRCRPPRLPRPRPRPPTFPRP
low band

Classify this sequence: RRIRDRPPRLPRPRPRPGYTPRP
low band

Classify this sequence: RRIRLRPPRLPRPRPRPGVRPRP
high band

Classify this sequence: RRIRPRPPRLPRPRPRPGRNPRP
middle band

Classify this sequence: RRIRLRPPRLPRPRPRPQDEPRP
high band

Classify this sequence: RRIRMRPPRLPRPRPRPIMDPRP
low band

Classify this sequence: RRIRQRPPRLPRPRPRPQEVPRP
low band

Classify this sequence: RRIRTRPPRLPRPRPRPRCAPRP
high band

Classify this sequence: RRIRKRPPRLPRPRPRPPAKPRP
high band

Classify this sequence: RRIRCRPPRLPRPRPRPNQKPRP
high band

Classify this sequence: RRIRVRPPRLPRPRPRPVNVPRP
low band

Classify this sequence: RRIRKRPPRLPRPRPRPGWMPRP
high band

Classify this sequence: RRIRTRPPRLPRPRPRPYAAPRP
low band

Classify this sequence: RRIRNRPPRLPRPRPRPLMPPRP
low band

Classify this sequence: RRIRARPPRLPRPRPRPDCPPRP
high band

Classify this sequence: RRIRMRPPRLPRPRPRPQFIPRP
middle band

Classify this sequence: RRIRCRPPRLPRPRPRPWCPPRP
low band

Classify this sequence: RRIRYRPPRLPRPRPRPFQIPRP
middle band

Classify this sequence: RRIRVRPPRLPRPRPRPLAWPRP
high band

Classify this sequence: RRIRVRPPRLPRPRPRPVMKPRP
low band

Classify this sequence: RRIRTRPPRLPRPRPRPYNSPRP
middle band

Classify this sequence: RRIRLRPPRLPRPRPRPDRYPRP
middle band

Classify this sequence: RRIRERPPRLPRPRPRPWHWPRP
middle band

Classify this sequence: RRIRHRPPRLPRPRPRPICPPRP
low band

Classify this sequence: RRIRNRPPRLPRPRPRPCSLPRP
low band

Classify this sequence: RRIRARPPRLPRPRPRPHVTPRP
middle band

Classify this sequence: RRIRIRPPRLPRPRPRPNYRPRP
middle band

Classify this sequence: RRIRARPPRLPRPRPRPPETPRP
high band

Classify this sequence: RRIRYRPPRLPRPRPRPIADPRP
high band

Classify this sequence: RRIRSRPPRLPRPRPRPSAMPRP
high band

Classify this sequence: RRIRDRPPRLPRPRPRPYLWPRP
middle band

Classify this sequence: RRIRGRPPRLPRPRPRPPCWPRP
high band

Classify this sequence: RRIRQRPPRLPRPRPRPQEHPRP
low band

Classify this sequence: RRIRHRPPRLPRPRPRPQNCPRP
middle band

Classify this sequence: RRIRVRPPRLPRPRPRPMNNPRP
low band

Classify this sequence: RRIRHRPPRLPRPRPRPKFMPRP
low band

Classify this sequence: RRIRPRPPRLPRPRPRPIHWPRP
high band
